All figures here come from patent US20230037815A1.

target: T1, human serum albumin (human, UniProt P02768 25-609); experiment: Octet HTX (ForteBio), HCAb on AHC sensor, 1:1 fit
T1 construct: also called HSA
The following binders are listed with their measured koff values.
Give the value in s⁻¹ but do not write s⁻¹ after it.

- Binder: "CNG-HSA-116 (VHH) VHH: KVQLVESGGGLVQPGGSLRLSCAASGFTFSSFGMSWVRQAPGKGPEWVSSISGSGSDTLYADSVKGRFTISRDNSKNTLYLQMNSLRAEDTAVYYCTIGGSLRASSQGTLVTVSS"
  Units Label: "s⁻¹"
  Value Observed: 0.000699

Report koff for CNG-HSA-108 (VHH) VHH: KVQLVESGGGLVQPGGSLRLSCAASGFTFGSFGMSWVRQAPGKGLEWVSSISGSGADTLYADSVKGRFTISRDNSKNTLYLQMNSLRAEDTAVYYCTIGGSLRASSQGTLVTVSS please.
0.000958

Report koff for CNG-HSA-117 (VHH) VHH: KVQLVESGGGLVQPGNSLRLSCAASGFTFSSFGMSWVRQAPGKGLEWVSSISGSGSDTLYADSVKGRFTISRDNSKNTLYLQMNSLRAEDTAVYYCTIGGSLTRSSQGTLVTVSS please.
0.000793

Report koff for CNG-HSA-118 (VHH) VHH: KVQLVESGGGLVQPGNSLRLSCAASGFTFSSFGMSWVRQAPGKGLEWVSSISGGGSDTLYADSVRGRFTISRDNSKNTLYLQMNSLRAEDTAVYYCTIGGSLRASSQGTLVTVSS please.
0.0013
